Read-out record for c-KIT kinase (uKIT) (Homo sapiens (Human), UniProt P10721): IC50

For each of the compounds below, state IC50.
1. CC(C)(F)CCNC(=O)Nc1ccc(Nc2ncnc3cc(OCCCN4CCOCC4)cc(F)c23)cc1
2. COCCOc1cc(F)c2c(Nc3ccc(NC(=O)N[C@H]4CC[C@H](C(F)(F)F)CC4)cc3)ncnc2c1
3. COCCOc1cc(F)c2c(Nc3ccc(NC(=O)NC4CC(C)(C)C4)nc3)ncnc2c1

Solution:
1: ≤ 0.01 µM; 2: ≤ 0.01 µM; 3: 0.1 to 1 µM

Problem: Entry COCCOc1cc(F)c2c(Nc3ccc(NC(=O)CC(=O)NCC4(C)CCOCC4)cc3)ncnc2c1 has what IC50?
Solution: 0.01 to 0.1 µM
